Attribution: patent US9199965B2

molecular target: human vanilloid-1 (hVR1) (Homo sapiens, UniProt Q8NER1); test: Calcium influx of vanilloid receptor in hVR1-HEK293 cells (capsaicin-induced, Fluo-3/AM); settings: 1 μM capsaicin-induced intracellular calcium influx, read-out: Inhibitory Activity IC50
Sequence (Q8NER1 whole entry): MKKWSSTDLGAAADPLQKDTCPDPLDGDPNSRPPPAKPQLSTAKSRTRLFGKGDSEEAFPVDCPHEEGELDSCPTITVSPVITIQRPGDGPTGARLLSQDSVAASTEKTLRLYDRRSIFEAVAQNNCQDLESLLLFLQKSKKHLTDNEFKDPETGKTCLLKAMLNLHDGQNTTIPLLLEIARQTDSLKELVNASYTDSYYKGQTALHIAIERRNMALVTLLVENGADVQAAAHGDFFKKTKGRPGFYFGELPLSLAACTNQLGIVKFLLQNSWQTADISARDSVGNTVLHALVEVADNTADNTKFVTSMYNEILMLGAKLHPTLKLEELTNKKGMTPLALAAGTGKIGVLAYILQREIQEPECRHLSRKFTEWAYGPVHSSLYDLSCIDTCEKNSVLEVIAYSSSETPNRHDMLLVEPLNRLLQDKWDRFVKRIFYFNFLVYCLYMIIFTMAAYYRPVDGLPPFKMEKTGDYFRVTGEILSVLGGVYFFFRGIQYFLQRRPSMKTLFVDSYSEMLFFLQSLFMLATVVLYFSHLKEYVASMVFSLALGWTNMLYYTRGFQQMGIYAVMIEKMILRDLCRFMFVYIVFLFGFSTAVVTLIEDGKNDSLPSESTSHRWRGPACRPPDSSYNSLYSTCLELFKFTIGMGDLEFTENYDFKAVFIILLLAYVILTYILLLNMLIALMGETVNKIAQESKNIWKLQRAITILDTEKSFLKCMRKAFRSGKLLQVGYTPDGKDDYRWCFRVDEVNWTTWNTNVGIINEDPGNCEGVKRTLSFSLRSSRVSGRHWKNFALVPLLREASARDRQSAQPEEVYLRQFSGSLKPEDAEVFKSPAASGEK
pIC50: −log10 of the molar value.
PARAMETER MEASURED: pIC50

Example results:
>>> print(df.to_string())
                        structure_as_smiles  parameter_measured  measured_value
0  FC(F)(F)c1ccc2nc(-c3ccc(-c4ncc(Cl)cc4Cl)cn3)[nH]c2c1               pIC50            7.01
1  COc1ccc2nc(-c3ccc(-c4ncccc4Cl)cc3)[nH]c2c1               pIC50            5.22
2  Clc1ccc2nc(-c3ccc(-c4ncccc4Cl)cn3)[nH]c2c1               pIC50            6.24
3  CC(C)(C)c1ccc2nc(-c3ccc(-c4ccccn4)cc3)[nH]c2c1               pIC50            7.09
4  FC(F)(F)c1cc(Cl)c2nc(-c3ccc(-c4ccccn4)cc3)[nH]c2c1               pIC50            6.55
5  FC(F)(F)c1cc(C(F)(F)F)c2nc(-c3ccc(-c4ncccc4C(F)(F)F)cc3)[nH]c2c1               pIC50            8.00
6  CC(C)(C)c1ccc2nc(-c3ccc(-c4ncccc4C#N)cc3)[nH]c2c1               pIC50            6.82
7  FC(F)(F)c1ccc2nc(-c3cccc(Cn4cc(Cl)cn4)c3)[nH]c2c1               pIC50            5.85
8  FC(F)(F)c1cc(Cl)c2nc(-c3ccc(-c4ncccc4C(F)(F)F)cn3)[nH]c2c1               pIC50            7.64

(A) CC(C)(C)c1ccc2nc(-c3ccc(-c4ncccc4Cl)c4ccccc34)[nH]c2c1
(B) FC(F)(F)c1cc(Cl)c2nc(-c3ccc(-c4ncccc4Cl)cc3)[nH]c2c1
(C) FC(F)(F)c1ccc2nc(-c3ccc(-c4ncccc4Cl)cn3)[nH]c2c1
(D) Clc1cc2nc(-c3ccc(-c4ccccn4)cn3)[nH]c2cc1Cl
Query block: Falling order of pIC50, please. Answer with the labels in sequence, matching the requested order.
Result block: B, A, D, C
(B: 7.96, A: 7.62, D: 7.34, C: 6.02)

###

target: UniProt Q8NER1; assay: Calcium influx of vanilloid receptor in hVR1-HEK293 cells (capsaicin-induced, Fluo-3/AM); details: 1 μM capsaicin-induced intracellular calcium influx, read-out: Inhibitory Activity IC50
pIC50: −log10 of the molar value.
PARAMETER MEASURED: pIC50

Example results:
                        structure_as_smiles  measured_value
0  Cc1ccc2nc(-c3ccc(-c4ncccc4Cl)cc3)[nH]c2c1C            6.94
1  FC(F)(F)c1ccc2nc(-c3ccc(-c4ncccc4C(F)(F)F)cn3)[nH]c2c1            7.85
2  FC(F)(F)c1cccnc1-c1ccc(-c2nc3ccc(Cl)cc3[nH]2)nc1            6.59
3  FC(F)(F)c1cccnc1-c1ccc(-c2nc3ncc(Br)cc3[nH]2)cc1            7.72
4  FC(F)(F)c1ccc2nc(-c3ccc(-c4ncc(Cl)cc4Cl)c(Cl)c3)[nH]c2c1            6.28
5  FC(F)(F)c1cc(Br)c2nc(-c3ccc(-c4ncccc4Cl)cc3)[nH]c2c1            6.77
6  Clc1cc2nc(-c3ccc(-c4ncccc4Cl)cc3)[nH]c2cc1Cl            7.15
7  FC(F)(F)c1cc(Br)c2nc(-c3ccc(-c4ncccc4C(F)(F)F)cc3)[nH]c2c1            7.03

(A) FC(F)(F)c1ccc2nc(-c3ccc(-c4ncccc4Cl)c4ccccc34)[nH]c2c1
(B) Clc1cccnc1-c1ccc(-c2nc3ccc(Br)cc3[nH]2)nc1
(C) FC(F)(F)c1cc(C(F)(F)F)c2nc(-c3ccc(-c4ccccn4)cc3)[nH]c2c1
(D) Clc1ccc2nc(-c3ccc(-c4cccc5ccccc45)nc3)[nH]c2c1
Query block: Task for the reader: rank each entry by its pIC50, from the minimum upward. Answer with the labels in sequence, matching the requested order.
Result block: B, C, D, A
(B: 5.62, C: 6.61, D: 6.82, A: 7.51)

(A) FC(F)(F)c1cnc2nc(-c3ccc(-c4ncccc4Cl)cc3)[nH]c2c1
(B) Fc1ccc2nc(-c3ccc(-c4ccccn4)cc3)[nH]c2c1
(C) CC(C)(C)c1ccc2nc(-c3ccc(-c4cccc5ccccc45)nc3)[nH]c2c1
(D) Fc1ccc2nc(-c3ccc(-c4ncccc4C(F)(F)F)cn3)[nH]c2c1
Query block: Task for the reader: rank each entry by its pIC50, from the minimum upward. Answer with the labels in sequence, matching the requested order.
Result block: D, B, C, A

(I) Clc1cc2nc(-c3ccc(-c4ccccn4)cc3)[nH]c2cc1Cl
(II) FC(F)(F)c1cccnc1-c1ccc(-c2nc3ccc(Br)cc3[nH]2)nc1
Query block: Larger number for pIC50: I , or II ? Write down the label of the entry you select.
Result block: II
(II: 7.55, I: 6.53)

###

Biological target: human vanilloid-1 (hVR1) (Homo sapiens)
Experiment: Calcium influx of vanilloid receptor in hVR1-HEK293 cells (capsaicin-induced, Fluo-3/AM)
Conditions: 1 μM capsaicin-induced intracellular calcium influx, read-out: Inhibitory Activity IC50
Protocol: Experiments for calcium influx were performed to measure the activity of the compounds as antagonists. The cell strain hVR1-HEK293 is the human embryonic kidney (HEK) 293 Tet-on cell transfected with a human vanilloid-1 gene (pTRE2hyg-hVR1, 7.8 kb), which is capable of controlling the expression of VR1 according to the administration of deoxycycline, a tetracycline derivative analog. […]
PARAMETER MEASURED: IC50 (nM)

>>> df
                                   molecule   u  measured_value
0  FC(F)(F)c1ccc2nc(-c3ccc(-c4cccc5ccccc45)nc3)[nH]c2c1 [Compound 176]  nM             229
1  FC(F)(F)c1cccnc1-c1ccc(-c2nc3cc(Cl)c(Cl)cc3[nH]2)nc1 [Compound 163]  nM              15

(P) FC(F)(F)c1cc(C(F)(F)F)c2nc(-c3ccc(-c4ncccc4Cl)c4ccccc34)[nH]c2c1 [Compound 106]
(Q) FC(F)(F)c1cnc2nc(-c3ccc(-c4ncccc4Cl)c4ccccc34)[nH]c2c1 [Compound 107]
(R) FC(F)(F)c1cccnc1-c1ccc(-c2nc3ccc(Br)cc3[nH]2)cc1 [Compound 37]
Query block: Falling order of IC50, please. Answer with the labels in sequence, matching the requested order.
Result block: P, R, Q

(P) CC(C)(C)c1ccc2nc(-c3ccc(-c4ncc(Cl)cc4Cl)cc3)[nH]c2c1 [Compound 25]
(Q) N#Cc1cccnc1-c1ccc(-c2nc3ccc(C(F)(F)F)cc3[nH]2)cc1 [Compound 59]
Query block: Please indicate which has the smaller reported IC50: P , or Q . Write down the label of the entry you select.
Result block: P
